Listed compounds paired with reported collision cross section
test: collision cross section (TIMS, N2 drift gas) of the primary ion; higher = larger gas-phase ion size; conditions: ionization mode: ESI+; ion species: [M+H]+

COMPOUND: CC(C)NCC(O)COc1ccc(CC(=O)O)cc1 (stereo unspecified) [Metoprolol acid]
collision cross section / Å²: 166.24

COMPOUND: O=C(CC(C(=O)OC1CCCCC1)S(=O)(=O)O)OC1CCCCC1 (stereo unspecified) [Dicyclohexyl sulfosuccinate]
collision cross section / Å²: 201.58

COMPOUND: CC[C@H]1OC(=O)[C@H](C)[C@@H](O[C@H]2C[C@@](C)(OC)[C@@H](O)[C@H](C)O2)[C@H](C)[C@@H](O[C@@H]2O[C@H](C)C[C@H](N(C)C)[C@H]2O)[C@](C)(O)C[C@@H](C)C(=NOCOCCOC)[C@H](C)[C@@H](O)[C@]1(C)O [Roxithromycin]
collision cross section / Å²: 277.32

COMPOUND: CCC(C)(CC)c1cc(NC(=O)c2c(OC)cccc2OC)on1 [Isoxaben]
collision cross section / Å²: 186.76

COMPOUND: CCC(=O)O[C@]1(C(=O)CCl)[C@@H](C)C[C@H]2[C@@H]3CCC4=CC(=O)C=C[C@]4(C)[C@@]3(F)[C@@H](O)C[C@@]21C [Clobetasol propionate]
collision cross section / Å²: 207.98

COMPOUND: CC(C)(C)c1ccc(CSc2cnn(C(C)(C)C)c(=O)c2Cl)cc1 [Pyridaben]
collision cross section / Å²: 193.46

----------
test: reversed-phase LC retention time (C18, 15 min MeOH gradient); higher = more hydrophobic / later elution; details: ionization mode: ESI-; ion species: [M-H]-

COMPOUND: Nc1ccc2c(n1)[nH]c1ccccc12 [2-Amino-9H-pyrido[2,3-b]indole (AalphaC)]
reversed-phase LC retention time, min: 12
//
COMPOUND: CCc1cccc(C)c1N(C(=O)CS(=O)(=O)O)C(C)COC (stereo not drawn) [Metolachlor ESA]
reversed-phase LC retention time, min: 12
//
COMPOUND: O=C(O)c1ccccc1Nc1cccc(C(F)(F)F)c1 [Flufenamic acid]
reversed-phase LC retention time, min: 14
//
COMPOUND: CCCc1nc2c(C)cc(-c3nc4ccccc4n3C)cc2n1Cc1ccc(-c2ccccc2C(=O)O)cc1 [Telmisartan]
reversed-phase LC retention time, min: 14.6
//
COMPOUND: Oc1ccc(Cc2ccc(O)cc2)cc1 [Bisphenol F]
reversed-phase LC retention time, min: 11.9
//
COMPOUND: COC(=O)CCc1cc(C(C)(C)C)c(O)c(C(C)(C)C)c1 [Methyl 3-(3,5-di-tert-butyl-4-hydroxyphenyl)propionate]
reversed-phase LC retention time, min: 17.3
//
COMPOUND: Oc1ccc(C(=C(Cl)Cl)c2ccc(O)cc2)cc1 [Bisphenol C]
reversed-phase LC retention time, min: 14.5
//
COMPOUND: CC(C)(c1ccc(O)c(-c2ccccc2)c1)c1ccc(O)c(-c2ccccc2)c1 [Bisphenol PH]
reversed-phase LC retention time, min: 17.2
//
COMPOUND: O=C(O)C(F)(F)C(F)(F)C(F)(F)C(F)(F)C(F)(F)C(F)(F)C(F)(F)F [Perfluorooctanoic acid]
reversed-phase LC retention time, min: 14.7
//
COMPOUND: O=C(O)CCCCCCCCC(=O)O [Sebacic acid]
reversed-phase LC retention time, min: 3.2
//
COMPOUND: CC(C)(C)c1cc([N+](=O)[O-])cc([N+](=O)[O-])c1O [Dinoterb]
reversed-phase LC retention time, min: 12.5
//
COMPOUND: c1ccc2sc(NC3CCCCC3)nc2c1 [N-Cyclohexyl-2-benzothiazole-amine]
reversed-phase LC retention time, min: 15.9
//
COMPOUND: Oc1c(Br)cc(Cl)cc1Cc1cc(Cl)cc(Br)c1O [Bromochlorophen]
reversed-phase LC retention time, min: 16.3
//
COMPOUND: O=C(c1ccccc1)c1ccc(O)cc1 [4-Hydroxybenzophenone]
reversed-phase LC retention time, min: 12
//
COMPOUND: CCC(C)C(=O)OC1CC(O)C=C2C=CC(C)C(CCC(O)CC(O)CC(=O)O)C21 (stereo not drawn) [Pravastatin]
reversed-phase LC retention time, min: 12.1
//
COMPOUND: CC(C)(c1cc(Br)c(O)c(Br)c1)c1cc(Br)c(O)c(Br)c1 [Tetrabromobisphenol A]
reversed-phase LC retention time, min: 15.3
//
COMPOUND: COc1ccc2[nH]cc(CCNC(C)=O)c2c1 [Melatonin]
reversed-phase LC retention time, min: 9.81
//
COMPOUND: CCC(=O)Nc1ccc(Cl)c(Cl)c1 [Propanil]
reversed-phase LC retention time, min: 14.1

Where do the numbers come from? From the supplement of paper PMC12613149.
